Cited source: patent US20190359687A1

Molecular target: T1, recombinant human GPA ectodomain (human, UniProt P02724 20-91)
T1 construct: also called recombinant hGPA ECD; recGPA
T1 sequence: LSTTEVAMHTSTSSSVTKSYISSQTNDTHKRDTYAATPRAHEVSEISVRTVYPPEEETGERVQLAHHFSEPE
Experiment: ELISA, rec hGPA ectodomain
readout: binding by ELISA relative to parental

TPP-5347 (Fab, V domains shown, also called VL: (F35Y)) VH: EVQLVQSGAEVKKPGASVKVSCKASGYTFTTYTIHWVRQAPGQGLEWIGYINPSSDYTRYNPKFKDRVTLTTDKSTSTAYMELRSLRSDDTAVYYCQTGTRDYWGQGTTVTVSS VL: DIQLTQSPSFLSASVGDRVTITCSAASSVSYIYWYQQKPGKAPKLLIYSTSTLPSGVPSRFSGSGSGTEYTLTISSLQPEDFATYYCHQRNSFPFTFGQGTKLEIKR = 0.35
TPP-5333 (Fab, V domains shown, also called VH: (R84S)) VH: EVQLVQSGAEVKKPGASVKVSCKASGYTFTTYTIHWVRQAPGQGLEWIGYINPSSDYTRYNPKFKDRVTLTTDKSTSTAYMELSSLRSDDTAVYYCQTGTRDYWGQGTTVTVSS VL: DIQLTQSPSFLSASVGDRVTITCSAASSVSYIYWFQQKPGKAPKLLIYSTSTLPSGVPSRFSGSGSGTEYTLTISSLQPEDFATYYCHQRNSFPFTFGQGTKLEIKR = 0.97
